Source listed as patent US20240287042A1.

Reported inhibition at 3 µM by item:
target: human wild-type (WT)-pendrin (Homo sapiens); construct: expressed in transfected cells; test: Pendrin Cl−/I− exchange inhibitory activity, YFP fluorescence in CHO-K1 cells; type: cell-based; settings: CHO-K1; compound concentration 3 μM

These recorded examples may help you get a feel for the data.
molecule	inhibition at 3 µM
O=C(O)c1[nH]c2ccc(Cl)cc2c1CC(=O)N1CCN(c2ccc(F)cc2Cl)CC1	< 20%
Cc1cc(C)c2[nH]c(C(=O)O)c(CC(=O)N3CCN(c4c(C)cccc4Cl)CC3)c2c1	39.5%
Cc1cccc(C)c1N1CCN(C(=O)Cc2c(C(=O)O)[nH]c3ccc(F)cc23)CC1	< 20%

Exercise: Requested read-out: inhibition at 3 µM. Entry: Cc1cccc(Cl)c1N1CCN(C(=O)Cc2c(C(=O)O)[nH]c3ccc(Cl)cc23)CC1
Solution: 75.2%

Exercise: Param item = CC1CN(C(=O)Cc2c(C(=O)O)[nH]c3ccc(Cl)cc23)CCN1c1ccccc1 (centres unmarked) ; retrieve measured inhibition at 3 µM.
Solution: < 20%

Exercise: Which inhibition at 3 µM reading was recorded for the molecule CC(C)(C)OC(=O)N1CCN(C(=O)Cc2c(C(=O)O)[nH]c3ccc(Cl)cc23)CC1 ?
Solution: < 20%

Exercise: inhibition at 3 µM for CC1(C)CN(c2ccc(Cl)cc2)CCN1C(=O)Cc1c(C(=O)O)[nH]c2ccc(Cl)cc12 ?
Solution: < 20%

Exercise: Report inhibition at 3 µM for Cc1ccc(C)c(N2CCN(C(=O)Cc3c(C(=O)O)[nH]c4ccc(Cl)cc34)CC2)c1 please.
Solution: 24.6%

* * *

The following molecules are listed with their measured inhibition at 100 µM values.
Biological target: human wild-type (WT)-pendrin (Homo sapiens)
Construct: expressed in transfected cells
Sequence (O43511 1-780): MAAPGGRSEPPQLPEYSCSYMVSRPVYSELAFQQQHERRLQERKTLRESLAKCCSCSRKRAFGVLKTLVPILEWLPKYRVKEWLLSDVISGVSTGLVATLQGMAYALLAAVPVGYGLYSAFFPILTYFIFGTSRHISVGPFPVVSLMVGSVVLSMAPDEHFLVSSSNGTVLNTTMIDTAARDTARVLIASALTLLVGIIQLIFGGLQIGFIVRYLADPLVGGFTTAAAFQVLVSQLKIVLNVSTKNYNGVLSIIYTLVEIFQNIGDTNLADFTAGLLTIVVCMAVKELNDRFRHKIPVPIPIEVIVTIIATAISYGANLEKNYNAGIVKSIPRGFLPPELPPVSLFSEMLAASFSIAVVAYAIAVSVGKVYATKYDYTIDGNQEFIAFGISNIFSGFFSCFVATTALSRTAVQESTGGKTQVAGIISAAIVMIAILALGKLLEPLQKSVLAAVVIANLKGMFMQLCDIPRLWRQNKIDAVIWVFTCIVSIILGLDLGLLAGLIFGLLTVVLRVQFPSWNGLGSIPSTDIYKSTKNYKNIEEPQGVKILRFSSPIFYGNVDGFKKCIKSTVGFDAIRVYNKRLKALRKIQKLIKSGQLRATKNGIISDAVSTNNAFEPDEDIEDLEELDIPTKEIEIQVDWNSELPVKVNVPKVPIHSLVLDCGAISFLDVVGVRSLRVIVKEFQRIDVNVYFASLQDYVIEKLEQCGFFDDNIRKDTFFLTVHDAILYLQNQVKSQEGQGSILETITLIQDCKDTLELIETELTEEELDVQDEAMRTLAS
Experiment: Pendrin Cl−/I− exchange inhibitory activity, YFP fluorescence in CHO-K1 cells
Format: cell-based
Settings: CHO-K1; compound concentration 100 μM
# value in %; strip the unit string

smiles entry	unit symbol	inhibition at 100 µM
CCOc1ccccc1N1CCN(C(=O)Cc2c(C(=O)O)[nH]c3ccc(Cl)cc23)CC1	%	45.3
COc1ccc(N2CCN(C(=O)Cc3c(C(=O)O)[nH]c4ccc(Cl)cc34)CC2)cc1	%	79.4
O=C(O)c1[nH]c2ccc(Cl)cc2c1CC(=O)N1CCN(c2ccc(Cl)cc2)CC1	%	92.1
O=C(O)c1[nH]c2ccc(Cl)cc2c1CC(=O)N1CCN(c2ccc(F)cc2Cl)CC1	%	84.2
Cc1cc(C)c2[nH]c(C(=O)O)c(CC(=O)N3CCN(c4ccc(C(C)(C)C)cc4)CC3)c2c1	%	38.6

Exercise: Entry Cc1ccc2[nH]c(C(=O)O)c(CC(=O)N3CCN(c4c(C)cccc4Cl)CC3)c2c1 , system human wild-type (WT)-pendrin (Homo sapiens): what inhibition at 100 µM was measured?
Solution: 100

Exercise: Hi! What's the reported inhibition at 100 µM for Cc1cccc(C)c1N1CCN(C(=O)Cc2c(C(=O)O)[nH]c3ccc(Cl)cc23)CC1 on human wild-type (WT)-pendrin (Homo sapiens)?
Solution: 100

Exercise: Item: Cc1ccc(N2CCN(C(=O)Cc3c(C(=O)O)[nH]c4ccc(Cl)cc34)CC2)cc1 Test system: human wild-type (WT)-pendrin (Homo sapiens) Read-out: inhibition at 100 µM Value: ?
Solution: 92.3

Exercise: Lab request: please report inhibition at 100 µM under test system human wild-type (WT)-pendrin (Homo sapiens) for CCOc1ccc(N2CCN(C(=O)Cc3c(C(=O)O)[nH]c4ccc(Cl)cc34)CC2)cc1
Solution: 73.8

Exercise: Write down the reported inhibition at 100 µM of COc1ccc(Cl)c(N2CCN(C(=O)Cc3c(C(=O)O)[nH]c4ccc(Cl)cc34)CC2)c1 , test system: human wild-type (WT)-pendrin (Homo sapiens).
Solution: 79.9

Exercise: Lookup: inhibition at 100 µM / human wild-type (WT)-pendrin (Homo sapiens) / O=C(O)c1[nH]c2ccc(Cl)cc2c1CC(=O)N1CCN(c2ccccc2F)CC1
Solution: 78.3

Exercise: Notebook entry, human wild-type (WT)-pendrin (Homo sapiens) assay: inhibition at 100 µM of O=C(O)c1[nH]c2ccc(Cl)cc2c1CC(=O)N1CCN(c2ccccc2)CC1 = ?
Solution: 40.2

Exercise: Hi! What's the reported inhibition at 100 µM for COc1ccccc1N1CCN(C(=O)Cc2c(C(=O)O)[nH]c3ccc(Cl)cc23)CC1 on human wild-type (WT)-pendrin (Homo sapiens)?
Solution: 56.8

Exercise: Identify the measured inhibition at 100 µM of Cc1ccccc1N1CCN(C(=O)Cc2c(C(=O)O)[nH]c3ccc(Cl)cc23)CC1 for human wild-type (WT)-pendrin (Homo sapiens).
Solution: 92.4
